# Tested on: A549
# experiment.description: Cytotoxicity against human A549 cells after 48 hrs by MTT assay
# Type: functional, cell-based
# test.context: A549, 48 h
metric.name: pIC50
By convention, pIC50 is the negative base-10 log of a molar concentration.

A549 assay, compound `CCN(CC)/[N+]([O-])=N/OCOC(=O)c1ccccc1OC(C)=O` , recorded pIC50 = 3.87

Value (pIC50, A549) for record `CC(=O)Oc1ccccc1C(=O)OCO/N=[N+](\[O-])NC(C)C` = 4.05

====

# experiment.description: Half life of the compound
# Assay type: physicochemical
So I've got a bunch of compounds here, and I need their half-life values.
Answer as a quantity: numeral, then unit.

Looking up `CCN(CC)/[N+]([O-])=N/[O-].[Na+]` , I see its half-life listed as 2.5 min

Per the records, this compound ( `CC(C)N[N+]([O-])=N[O-].[Na+]` ) has half-life equal to 5.7 min

====

Task for the reader: assign each of the following molecules its reported half-life.
# experiment.description: Half life of the compound at pH 7.4
# Format: physicochemical
Answer as a quantity: numeral, then unit.

Record summary for `CCN(CC)/[N+]([O-])=N/OCOC(=O)c1ccccc1OC(C)=O` : reported half-life = 36 h

// `CC(=O)Oc1ccccc1C(=O)OCO/N=[N+](\[O-])NC(C)C` : half-life value = 7.5 h
